Assignment: determine reported melting point for the given molecules.
One number for each entry, in °C.

// each listed molecule needs a value for melting point
1. CC(=O)Nc1c[nH]c(C(N)=O)c1-c1ccc(NC(=O)Nc2cc(C(F)(F)F)ccc2F)cc1 [Example 5]
2. NC(=O)c1[nH]cnc1-c1ccc(NC(=O)Nc2cc(C(F)(F)F)ccc2F)cc1 [Example 46]
3. NC(=O)c1[nH]cc(C(=O)O)c1-c1ccc(NC(=O)Nc2cc(C(F)(F)F)ccc2F)cc1 [Example 38]

[228.5, 325, 194]

* * *

Assignment: determine reported melting point for the given compounds.
Answers are plain numbers, in °C.

CN(C)CC(=O)Nc1c[nH]c(C(N)=O)c1-c1ccc(NC(=O)Nc2cc(C(F)(F)F)ccc2F)cc1 [Example 6] = 178
CCOC(=O)c1c[nH]c(C(N)=O)c1-c1ccc(NC(=O)Nc2cc(C(F)(F)F)ccc2F)cc1 [Example 9] = 179
NC(=O)c1[nH]cc(NC(=O)c2ccccc2)c1-c1ccc(NC(=O)Nc2cc(C(F)(F)F)ccc2F)cc1 [Example 7] = 239.7

Okay, next one:
Give its melting point value. Item: NC(=O)c1c[nH]c(C(N)=O)c1-c1ccc(NC(=O)Nc2cc(C(F)(F)F)ccc2F)cc1 [Example 40]
196
